// reported IC50 per item
Biological target: CSF1R kinase (recombinant N-terminal GST-CSF1R, residues L534-C972) (Homo sapiens)
Construct: Recombinant N-terminal GST-CSF1R (CSF1R residues L534-C972) containing the CSFIR kinase domain
Sequence (P07333 534-972): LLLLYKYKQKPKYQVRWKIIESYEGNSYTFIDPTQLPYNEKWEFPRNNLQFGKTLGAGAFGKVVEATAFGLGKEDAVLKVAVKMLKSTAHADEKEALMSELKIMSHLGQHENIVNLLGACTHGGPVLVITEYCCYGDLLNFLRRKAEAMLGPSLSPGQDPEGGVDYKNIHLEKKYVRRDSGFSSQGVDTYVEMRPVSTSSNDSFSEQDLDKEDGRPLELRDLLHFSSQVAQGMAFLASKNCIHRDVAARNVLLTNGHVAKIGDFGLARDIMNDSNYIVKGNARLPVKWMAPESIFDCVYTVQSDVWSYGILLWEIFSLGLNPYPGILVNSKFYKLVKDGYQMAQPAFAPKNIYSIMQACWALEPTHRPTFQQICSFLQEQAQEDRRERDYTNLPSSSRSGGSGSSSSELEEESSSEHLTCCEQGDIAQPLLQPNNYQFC
Experiment: CSF1R Kinase-Glo assay
Settings: 40 μM ATP, 30° C. 180 min, read-out: Enzymatic Assay CSF1R enzyme IC50

Look over these answered cases.
>>> result("CN(C)CCN(C)c1ccc2c(Oc3ccc(NC(=O)NCc4ccc(C(F)(F)F)nc4)cc3)ncnc2c1")
"< 20 nM"
>>> result("CN(C)c1ccc2c(Oc3ccc4c(cnn4C(=O)NCc4ccc(C(F)(F)F)nc4)c3)ncnc2c1 [Compound 68]")
"20 to 100 nM"
>>> result("COc1ccc(Cl)cc1NC(=O)Nc1ccc(Oc2ncnc3cc(N(C)C)ccc23)cc1")
"20 to 100 nM"
>>> result("CN(C)c1ccc2c(Oc3ccc(NC(=O)Nc4ccc(C(F)(F)F)cc4)cc3)ncnc2c1")
"100 to 1000 nM"

Lab note: need IC50 with CSF1R kinase (recombinant N-terminal GST-CSF1R, residues L534-C972) (Homo sapiens) for entry CN(C)c1ccc2c(Oc3ccc(NC(=O)NCc4ccc(C(F)(F)F)nc4)c(F)c3)ncnc2c1 , please look it up. 20 to 100 nM

Same question for O=C(NCc1ccc(C(F)(F)F)nc1)Nc1ccc(Oc2ncnc3cc(F)ccc23)cc1 please. 20 to 100 nM

Same question for CN(C)c1ccc2c(Oc3ccc(NC(=O)NCc4ccccc4)cc3)ncnc2c1 please. < 20 nM

Same question for CNc1ccc2c(Oc3ccc(NC(=O)Nc4ccccc4)cc3)ncnc2c1 please. 20 to 100 nM

Hey, just so you know, these numbers are from patent US12668584B2.
